Species on record: Homo sapiens
measurement-description: Selectivity ratio of Ki for displacement of [3H]propionyl-pNPY from human Y2 receptor expressed in CHO cells to Ki for displacement of [3H]UR-KK200 from human Y4 receptor expressed in CHO cells co-expressing Gqi5-mtAEQ
Type: cell-based
Square brackets hold non-standard residues; d marks the D form. Peptide text beside a SMILES is read from it. ξ: configuration not given here. ξOrn = NCCCC(N)C(=O)O
endpoint-name: Ratio Ki

Please review the following examples before continuing.
{"compound": "CC(C)C[C@H](NC(=O)[C@H](CCCNC(=N)N)NC(=O)[C@H](Cc1ccc(O)cc1)NC(=O)[C@@H](N)CCCNC(N)=O)C(=O)N[C@@H](CCCNC(=N)N)C(=O)N[C@@H](Cc1ccc(O)cc1)C(N)=O", "Ratio Ki": "> 630"}
{"compound": "CC(=O)N[C@@H](CCCNC(=N)N)C(=O)NC(CCCN)C(=O)NCC(=O)N[C@@H](Cc1c[nH]c2ccccc12)C(=O)N[C@@H](CCCNC(=N)N)C(=O)N[C@@H](CC(C)C)C(=O)N[C@@H](CCCNC(=N)N)C(=O)N[C@@H](Cc1ccc(O)cc1)C(N)=O (stereo partly drawn) (Ac-R[ξOrn]GWRLRY-NH2)", "Ratio Ki": "> 230"}

Please look at the following compound next.
Reported Ratio Ki for CC(=O)N[C@@H](CCCNC(=N)N)C(=O)N[C@@H](Cc1c[nH]c2ccccc12)C(=O)N[C@@H](CCCNC(=N)N)C(=O)N[C@@H](CC(C)C)C(=O)N[C@@H](CCCNC(=N)N)C(=O)N[C@@H](Cc1ccc(O)cc1)C(N)=O was > 710
